Would you kindly list protein stability index for each of these variants?
B1: RIPK4 (parent)
chain: AAWQGHLPIVKLLAKQPGVSVNAQ

- Variants of: B1
- EXPERIMENT_SUMMARY: protein stability index of a GFP-peptide fusion (GPS, HEK-293T) (PSI 1-6); higher = more stable;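 also: lentivirally expressed fusions sorted by FACS into six bins by GFP to DsRed ratio, PSI derived from sequencing read proportions per bin multiplied by bin number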
- COND: c terminus: a fixed tail appended

# annotated cases, reported protein stability index shown
INSERT INTO assay_data (record_sequence, result) VALUES
  ('AAWQGHLPIVSLLAKQPGVSVNAQ [K11S]', 1.58),
  ('AAWQGHLPIVKLLAKQYGVSVNAQ [P17Y]', 3.38),
  ('AAWQGVLPIVKLLAKQPGVSVNAQ [H6V]', 4);

API: the following record is the query input.
(Q) I would be grateful if you could share the reported protein stability index for AAWNGHLPIVKLLAKQPGVSVNAQ [Q4N] .
(A) 2.06
